# Test system: Enterobacter cloacae 3MRGN (clinical bronchial aspirate isolate)
# assay-comment: MIC 50, broth micro-dilution, clinical isolate
# Type: cell-based
# condition-set: Enterobacter cloacae, E. Cloacae clinical isolate; read-out: MIC 50
measure-name: MIC50 (µM)
Write it as a number; the unit µM goes unstated.

compound | measure-name | display-unit | assay-result
N=C(NCCO)NC1[C@@H](O)C(OC2[C@@H](F)[C@H](O[C@H]3OC(CN)[C@@H](O)CC3N)C(N)C[C@H]2NC(=O)[C@@H](O)CCN)O[C@H](CO)[C@H]1O (some centres unmarked) [ABX5029, Tobra-AHB-F-Gua 2-hydroxy-ethyl] | MIC50 | µM | 1
N=C(NC[C@@H]1CNCCO1)NC1[C@@H](O)C(OC2[C@@H](F)[C@H](O[C@H]3OC(CN)[C@@H](O)CC3N)C(N)C[C@H]2NC(=O)[C@@H](O)CCN)O[C@H](CO)[C@H]1O (some centres unmarked) [ABX5040] | MIC50 | µM | 0.25
N=C(NCC1CC1)NC1[C@@H](O)C(OC2[C@@H](F)[C@H](O[C@H]3OC(CN)[C@@H](O)CC3N)C(N)C[C@H]2NC(=O)[C@@H](O)CCN)O[C@H](CO)[C@H]1O (some centres unmarked) [ABX5027, Tobra-AHB-F-Gua cyclopropylmethyl] | MIC50 | µM | 0.5
NCC[C@H](O)C(=O)N[C@@H]1C[C@H](N)[C@@H](O[C@H]2O[C@H](CN)[C@@H](O)[C@H](O)[C@H]2O)[C@H](O)[C@H]1O[C@H]1O[C@H](CO)[C@@H](O)[C@H](N)[C@H]1O [Amikacin, amikacin, reference compound] | MIC50 | µM | 2
CNCCNC(=N)NC1[C@@H](O)C(OC2[C@@H](F)[C@H](O[C@H]3OC(CN)[C@@H](O)CC3N)C(N)C[C@H]2NC(=O)[C@@H](O)CCN)O[C@H](CO)[C@H]1O (some centres unmarked) [ABX5038, Tobra-AHB-F-Gua 2-(methylamino)ethyl] | MIC50 | µM | 0.5
N=C(NCC1CCOC1)NC1[C@@H](O)C(OC2[C@@H](F)[C@H](O[C@H]3OC(CN)[C@@H](O)CC3N)C(N)C[C@H]2NC(=O)[C@@H](O)CCN)O[C@H](CO)[C@H]1O (some centres unmarked) [ABX5051] | MIC50 | µM | 1
N=C(NC[C@H]1CNCCO1)NC1[C@@H](O)C(OC2[C@@H](F)[C@H](O[C@H]3OC(CN)[C@@H](O)CC3N)C(N)C[C@H]2NC(=O)[C@@H](O)CCN)O[C@H](CO)[C@H]1O (some centres unmarked) [ABX5043] | MIC50 | µM | 0.25
N=C(NC[C@@H]1CCNC1)NC1[C@@H](O)C(OC2[C@@H](F)[C@H](O[C@H]3OC(CN)[C@@H](O)CC3N)C(N)C[C@H]2NC(=O)[C@@H](O)CCN)O[C@H](CO)[C@H]1O (some centres unmarked) [ABX5039] | MIC50 | µM | 0.25
N=C(NCC1CCCO1)NC1[C@@H](O)C(OC2[C@@H](F)[C@H](O[C@H]3OC(CN)[C@@H](O)CC3N)C(N)C[C@H]2NC(=O)[C@@H](O)CCN)O[C@H](CO)[C@H]1O (some centres unmarked) [ABX5046] | MIC50 | µM | 1

Continue with the compound presented below.
-- ask Endpoint output: MIC50 of N=C(NC[C@H]1CCNC1)NC1[C@@H](O)C(OC2[C@@H](F)[C@H](O[C@H]3OC(CN)[C@@H](O)CC3N)C(N)C[C@H]2NC(=O)[C@@H](O)CCN)O[C@H](CO)[C@H]1O (some centres unmarked) [ABX5042] . Value?
-- reply 0.25

These data points were gathered from patent US20220127297A1.
